- Test system: CAKI-1 renal
- test.protocol: NCI-60 one-dose screen, 48 h (100 = growth as untreated, 0 = no growth, -100 = all killed)
- stated.conditions: 10 µM unless noted
This is part of a sample that, as a whole, favours compounds with a hit. Of some 83,000 tested, about 20% had one in any assay.
measured.parameter: growth (%)
Number in %, nothing else.

Past entries and their recorded results:
molecule	unit.tag	reported.measurement
O=C(N/N=C\c1c(O)ccc2ccccc12)C1CC1	%	2.09
CC(C)(C)c1[nH]nc2c1C(c1cc3ccccc3[nH]c1=O)Nc1cc(C(=O)OCc3ccccc3)ccc1N2 (centres undefined)	%	54.6
c1ccc2[nH]c(-c3cc(-c4ccc5c(c4)OCO5)n[nH]3)nc2c1	%	55.1
COc1cccc(-c2nn(-c3ccccc3)cc2-c2ccnc(NCCCNS(=O)(=O)c3ccccc3)c2)c1	%	48.4
Cn1c2c(c3ccc(Cl)cc31)-n1cccc1C2=O	%	83.2
Cn1cc(-c2csc(-c3cn(C(=O)OC(C)(C)C)c4ccccc34)n2)c2cccnc21	%	58.7
COc1ccc(-c2nc3ncccn3c2-c2nc3ccc(Br)cc3[nH]2)cc1	%	93.7
Cn1c(=O)c2c(ncn2CC(=O)Nc2ccc(S(N)(=O)=O)cc2)n(C)c1=O	%	93.8

Next, consider the following molecule.
Q: Form field: reported growth of C=C(C)[C@@H]1CC[C@]2(C(=O)N3CCN(CC)CC3)CC[C@]3(C)[C@H](CC[C@@H]4[C@@](C)(CCC(=O)N5CCN(CC)CC5)[C@H](C(=C)C)CC[C@]43C)[C@@H]12
Ans: -15.3
